system: SW480; experiment: cell viability (CellTiter-Glo) relative to plate median (fraction of plate median); higher = more viable cells; details: 5 µM; treatment time 24 h; reporter: 7TFP
Provide the reported cell viability of each item.
# output: bare number, no unit

Any idea what its cell viability is? The molecule is `CC(C)C(=O)Nc1ccc([N+](=O)[O-])c(C(F)(F)F)c1`
1.02

Now try `C/C=C/C1=CC(=O)[C@@H](O)[C@@H]1O` .
0.986

Now try `CCC(C)(C)C(=O)O[C@H]1C[C@@H](C)C=C2C=C[C@H](C)[C@H](CC[C@@H]3C[C@@H](O)CC(=O)O3)[C@H]21` .
0.99

Now try C=C1[C@H]2CC[C@@]3(C)[C@H](c4ccoc4)OC(=O)C[C@]13O[C@H]1C[C@H](O)C(C)(C)[C@H](CC(=O)OC)[C@]12C [3-DEOXY-3beta-HYDROXYANGOLENSIC ACID METHYL ESTER] .
1.05

Now try `C=C(NC(=O)C(=C)NC(=O)c1csc(C2=N[C@@H]3c4csc(n4)[C@H]4NC(=O)c5csc(n5)[C@H]([C@](C)(O)[C@@H](C)O)NC(=O)[C@H]5CSC(=N5)/C(=C/C)NC(=O)[C@H]([C@@H](C)O)NC(=O)c5csc(n5)[C@]3(CC2)NC(=O)[C@H](C)NC(=O)C(=C)NC(=O)[C@H](C)NC(=O)[C@H]([C@@H](C)CC)N[C@@H]2C=Cc3c([C@H](C)O)cc(nc3[C@H]2O)C(=O)O[C@@H]4C)n1)C(N)=O` .
0.999
